system: SK-OV-3 ovarian; test: NCI tumour cell line growth inhibition, 48 h
measured.quantity: TGI

// solved cases for TGI follow
Endpoint output: TGI of NC1CC(=O)c2c1sc(Cl)c2Cl (centres undefined) . Value?
> 100 µM

Endpoint output: TGI of O=C1OC(C(O)CO)C(O)=C1O (centres undefined) . Value?
> 10000 µM

Endpoint output: TGI of COCOCC/C=C/C=O . Value?
> 100 µM

Next compound, TGI to be filled in.
Endpoint output: TGI of COC(=O)c1cc2c(cc1Cl)SC1=NN(C)C(N(C)C)N1S2(=O)=O (centres undefined) . Value?
> 100 µM
